ASSAY METHOD TEXT: Pharmacokinetics in dogs after SC and IV administration
ASSAY CONDITIONS: dog, in vivo, sc, 1 mg/kg, T½ γ
Where a SMILES comes first, the peptide text is derived from it. [ ]: non-standard residue; d: D form. Arg(Me) = CNC(=N)NCCC[C@H](N)C(=O)O; Hyp = O=C(O)[C@@H]1C[C@@H](O)CN1; azaGly = NNC(=O)O
MEASUREMENT NAME: half-life (h)
Entry rule: numbers only, all in h.

Consider the compound CNC(=N)NCCC[C@H](NC(=O)[C@H](CC(C)C)NC(=O)NNC(=O)[C@H](Cc1ccccc1)NC(=O)[C@@H](NC(=O)[C@H](CC(N)=O)NC(=O)[C@@H]1C[C@@H](O)CN1C(=O)[C@@H](Cc1ccc(O)cc1)NC(C)=O)[C@@H](C)O)C(=O)N[C@@H](Cc1c[nH]c2ccccc12)C(N)=O [Compound 1] (Ac-[dY][Hyp]NTF[azaGly]L[Arg(Me)]W-NH2) and give its recorded half-life.
2.6

* * *

ASSAY METHOD TEXT: Single dose PK, phase 1, healthy Japanese men
Type: in vivo, human
ASSAY CONDITIONS: male, human, plasma, sc, 0.5 mg, single SC bolus 0.5 mg, mean
Where a SMILES comes first, the peptide text is derived from it. [ ]: non-standard residue; d: D form. Arg(Me) = CNC(=N)NCCC[C@H](N)C(=O)O; Hyp = O=C(O)[C@@H]1C[C@@H](O)CN1; azaGly = NNC(=O)O
MEASUREMENT NAME: CL/F (mL/min)
Entry rule: numbers only, all in mL/min.

Consider the compound CC(=O)O.CNC(=N)NCCC[C@H](NC(=O)[C@H](CC(C)C)NC(=O)NNC(=O)[C@H](Cc1ccccc1)NC(=O)[C@@H](NC(=O)[C@H](CC(N)=O)NC(=O)[C@@H]1C[C@@H](O)CN1C(=O)[C@@H](Cc1ccc(O)cc1)NC(C)=O)[C@@H](C)O)C(=O)N[C@@H](Cc1c[nH]c2ccccc12)C(N)=O [API-MA] (Ac-[dY][Hyp]NTF[azaGly]L[Arg(Me)]W-NH2) and give its recorded CL/F.
282

* * *

ASSAY METHOD TEXT: Multiple-dose PK, 2-hour SC infusion once daily for 14 days, Japanese prostate cancer patients
Type: in vivo, human
ASSAY CONDITIONS: male, human, in vivo, sc, 1 mg/day, Japanese prostate cancer patients, 2-hour SC infusion 1.0 mg/day, Day 1, mean; read-out: T1/2 (converted)
Where a SMILES comes first, the peptide text is derived from it. [ ]: non-standard residue; d: D form. Arg(Me) = CNC(=N)NCCC[C@H](N)C(=O)O; Hyp = O=C(O)[C@@H]1C[C@@H](O)CN1; azaGly = NNC(=O)O
MEASUREMENT NAME: half-life (h)
Entry rule: numbers only, all in h.

Consider the compound CC(=O)O.CNC(=N)NCCC[C@H](NC(=O)[C@H](CC(C)C)NC(=O)NNC(=O)[C@H](Cc1ccccc1)NC(=O)[C@@H](NC(=O)[C@H](CC(N)=O)NC(=O)[C@@H]1C[C@@H](O)CN1C(=O)[C@@H](Cc1ccc(O)cc1)NC(C)=O)[C@@H](C)O)C(=O)N[C@@H](Cc1c[nH]c2ccccc12)C(N)=O [API-MA] (Ac-[dY][Hyp]NTF[azaGly]L[Arg(Me)]W-NH2) and give its recorded half-life.
3.15

* * *

ASSAY METHOD TEXT: Single dose PK, phase 1, healthy European men
Format: in vivo, human
ASSAY CONDITIONS: male, human, urine, sc, 2-hour INF 6 mg, geometric mean (% CV), read-out: Fe (urine)
Where a SMILES comes first, the peptide text is derived from it. [ ]: non-standard residue; d: D form. Arg(Me) = CNC(=N)NCCC[C@H](N)C(=O)O; Hyp = O=C(O)[C@@H]1C[C@@H](O)CN1; azaGly = NNC(=O)O
MEASUREMENT NAME: dose excreted (%)
Entry rule: numbers only, all in %.

Consider the molecule CC(=O)O.CNC(=N)NCCC[C@H](NC(=O)[C@H](CC(C)C)NC(=O)NNC(=O)[C@H](Cc1ccccc1)NC(=O)[C@@H](NC(=O)[C@H](CC(N)=O)NC(=O)[C@@H]1C[C@@H](O)CN1C(=O)[C@@H](Cc1ccc(O)cc1)NC(C)=O)[C@@H](C)O)C(=O)N[C@@H](Cc1c[nH]c2ccccc12)C(N)=O [API-MA] (Ac-[dY][Hyp]NTF[azaGly]L[Arg(Me)]W-NH2) and give its recorded dose excreted.
5.38

* * *

ASSAY METHOD TEXT: Pharmacokinetics in rats after SC and IV administration
ASSAY CONDITIONS: rat, in vivo, sc, 1 mg/kg, rats, SC 1 mg/kg, mean ± SD (n = 5); read-out: AUC(0-24)
Where a SMILES comes first, the peptide text is derived from it. [ ]: non-standard residue; d: D form. Arg(Me) = CNC(=N)NCCC[C@H](N)C(=O)O; Hyp = O=C(O)[C@@H]1C[C@@H](O)CN1; azaGly = NNC(=O)O
MEASUREMENT NAME: AUC(0-t) (ng·h/mL)
Entry rule: numbers only, all in ng·h/mL.

Consider the molecule CC(=O)O.CNC(=N)NCCC[C@H](NC(=O)[C@H](CC(C)C)NC(=O)NNC(=O)[C@H](Cc1ccccc1)NC(=O)[C@@H](NC(=O)[C@H](CC(N)=O)NC(=O)[C@@H]1C[C@@H](O)CN1C(=O)[C@@H](Cc1ccc(O)cc1)NC(C)=O)[C@@H](C)O)C(=O)N[C@@H](Cc1c[nH]c2ccccc12)C(N)=O [API-MA] (Ac-[dY][Hyp]NTF[azaGly]L[Arg(Me)]W-NH2) and give its recorded AUC(0-t).
804

* * *

ASSAY METHOD TEXT: Single dose PK, phase 1, healthy European men
Assay type: in vivo, human
ASSAY CONDITIONS: male, human, plasma, single SC 0.001 mg, geometric mean
Where a SMILES comes first, the peptide text is derived from it. [ ]: non-standard residue; d: D form. Arg(Me) = CNC(=N)NCCC[C@H](N)C(=O)O; Hyp = O=C(O)[C@@H]1C[C@@H](O)CN1; azaGly = NNC(=O)O
MEASUREMENT NAME: AUC(0-t)
Write the numeric value and follow it with the unit.

Consider the molecule CC(=O)O.CNC(=N)NCCC[C@H](NC(=O)[C@H](CC(C)C)NC(=O)NNC(=O)[C@H](Cc1ccccc1)NC(=O)[C@@H](NC(=O)[C@H](CC(N)=O)NC(=O)[C@@H]1C[C@@H](O)CN1C(=O)[C@@H](Cc1ccc(O)cc1)NC(C)=O)[C@@H](C)O)C(=O)N[C@@H](Cc1c[nH]c2ccccc12)C(N)=O [API-MA] (Ac-[dY][Hyp]NTF[azaGly]L[Arg(Me)]W-NH2) and give its recorded AUC(0-t).
0.0267 ng·h/mL

* * *

ASSAY METHOD TEXT: Single dose PK, phase 1, healthy European men
Type: in vivo, human
ASSAY CONDITIONS: male, human, plasma, single SC 0.001 mg, geometric mean
Where a SMILES comes first, the peptide text is derived from it. [ ]: non-standard residue; d: D form. Arg(Me) = CNC(=N)NCCC[C@H](N)C(=O)O; Hyp = O=C(O)[C@@H]1C[C@@H](O)CN1; azaGly = NNC(=O)O
MEASUREMENT NAME: AUC(0-inf) (ng·h/mL)
Entry rule: numbers only, all in ng·h/mL.

Consider the compound CC(=O)O.CNC(=N)NCCC[C@H](NC(=O)[C@H](CC(C)C)NC(=O)NNC(=O)[C@H](Cc1ccccc1)NC(=O)[C@@H](NC(=O)[C@H](CC(N)=O)NC(=O)[C@@H]1C[C@@H](O)CN1C(=O)[C@@H](Cc1ccc(O)cc1)NC(C)=O)[C@@H](C)O)C(=O)N[C@@H](Cc1c[nH]c2ccccc12)C(N)=O [API-MA] (Ac-[dY][Hyp]NTF[azaGly]L[Arg(Me)]W-NH2) and give its recorded AUC(0-inf).
0.0475

* * *

ASSAY METHOD TEXT: Single dose PK, phase 1, healthy European men
Format: in vivo, human
ASSAY CONDITIONS: male, human, plasma, single SC 0.01 mg, geometric mean, read-out: Vz/F
Where a SMILES comes first, the peptide text is derived from it. [ ]: non-standard residue; d: D form. Arg(Me) = CNC(=N)NCCC[C@H](N)C(=O)O; Hyp = O=C(O)[C@@H]1C[C@@H](O)CN1; azaGly = NNC(=O)O
MEASUREMENT NAME: Vd/F (L)
Entry rule: numbers only, all in L.

Consider the molecule CC(=O)O.CNC(=N)NCCC[C@H](NC(=O)[C@H](CC(C)C)NC(=O)NNC(=O)[C@H](Cc1ccccc1)NC(=O)[C@@H](NC(=O)[C@H](CC(N)=O)NC(=O)[C@@H]1C[C@@H](O)CN1C(=O)[C@@H](Cc1ccc(O)cc1)NC(C)=O)[C@@H](C)O)C(=O)N[C@@H](Cc1c[nH]c2ccccc12)C(N)=O [API-MA] (Ac-[dY][Hyp]NTF[azaGly]L[Arg(Me)]W-NH2) and give its recorded Vd/F.
85.6
